These measurements were taken from paper PMC5550455.

For each entry below, report its pIC50 value.
- Test system: HL-60 human tumor cell line
- test summary: Cytotoxicity assay, MTT method, HL-60
- Type: cell-based
- experimental conditions: Homo sapiens, HL-60, MTT method, HL-60 cell line
Lab note: report pIC50 as minus log10 of the concentration in molar units, number only.

Q: Lab request: please report pIC50 under test system HL-60 human tumor cell line for COc1cccc2c1C(=O)c1c(O)c3c(c(O)c1C2=O)C[C@@](O)(C(=O)CO)C[C@@H]3O[C@H]1C[C@H](N)[C@H](O)[C@H](C)O1 [Adramycin, Adriamycin, reference compound]
A: 6.52

Q: Form field: pIC50 recorded for CO[C@H]1CCN=C(C(=O)O)/C1=C/c1cc(C)c2cc(C(C)C)ccc(C)c1-2 [(+)-3] with HL-60 human tumor cell line (enter value)
A: 4.64

Q: So what pIC50 did CO[C@@H]1CCN=C(C(=O)O)/C1=C/c1cc(C)c2cc(C(C)C)ccc(C)c1-2 [(−)-3] get with HL-60 human tumor cell line?
A: 5.29

Q: Test system HL-60 human tumor cell line; read-out pIC50; what value for COC1CCN=C(C(=O)O)/C1=C/c1cc(C)c2cc(C(C)C)ccc(C)c1-2 (racemic) [compound 3, (±)-Muriceidine C] ?
A: 5.66
